Experiment: protein stability index of a GFP-peptide fusion (yeast GPS) (PSI 1-4); higher = more stable; sorted into four equal gates, so the index is relative within each strain
Conditions: ubr1∆
protein stability index vs 3: at or above is Criterion met, below is Criterion not met.

Known results for sequences:
1. ELYEVDVLKVNTLVRPN [RPL25]
Criterion not met
2. RRREQTTYSVDDYYKEI [ISW2]
Criterion not met
3. EVSQFLIENGASVRIKD [NAS6]
Criterion not met
4. FETETEVTFKNANIFSS [FAS1]
Criterion met
5. PASDDILDNINHNGSAL [ITC1]
Criterion met
6. YNSRPRSVRIPWYNNPV [PRP8]
Criterion not met

QUERY: Tell me whether protein stability index is at least 3 here: LLFIVGQVAIKTLVYLE [YCS4]
RESULT: Criterion met

QUERY: State whether the measured protein stability index reaches 3, counting equality as reaching it, for PSRQFDHYESNQLVAKL [SRB8]
RESULT: Criterion met

QUERY: I'd appreciate it if you could say whether GEVLGITRFGLSKMRDS [RPO31] has protein stability index at least equal to 3.
RESULT: Criterion met

QUERY: API: above_or_equal(metric=protein stability index, cutoff=3) for item ENDNLDNVSKNALDKLR [YCG1]
RESULT: Criterion met

QUERY: Is reported protein stability index greater than or equal to 3 here: EKIFHYGHVFLGITGLA [PUP3]
RESULT: Criterion not met

QUERY: Evaluate VRNLQGIQEVVHNTNSF [NUT1] : protein stability index at minimum 3?
RESULT: Criterion met

QUERY: Determine whether measured protein stability index meets or exceeds 3 for LQQQQQVVTTVASQSPH [SNF6]
RESULT: Criterion not met

QUERY: Could you tell me if the measured protein stability index of MIKESSTANPNIKLLNN [POP1] reaches 3 or more?
RESULT: Criterion not met

QUERY: I'd appreciate it if you could say whether NTLRMKHGTYDKLDDDG [RPB2] has protein stability index at least equal to 3.
RESULT: Criterion not met

QUERY: Is reported protein stability index greater than or equal to 3 here: DNNSSLNVSNTKENGDF [PRP8]
RESULT: Criterion met

QUERY: Form field: protein stability index at least 3? Entry: YGMSITETFEKPQRTNT [RPB2]
RESULT: Criterion met

QUERY: Hi, just wondering whether RVIDDNNRRRSRKRGGE [SIR3] shows protein stability index of 3 or higher.
RESULT: Criterion met

QUERY: Hi, just wondering whether HVKVNDKKEMTIYNNIR [SIR3] shows protein stability index of 3 or higher.
RESULT: Criterion met

QUERY: // inclusive: protein stability index at least 3? input: LVRSIIAFDDLIENKIQ [RPN8]
RESULT: Criterion not met

QUERY: Threshold query (protein stability index >= 3) on NSDHAKFTIEPGVLPVG [SNF2]
RESULT: Criterion not met

QUERY: Decide: is the reported value of protein stability index for NVLCVNIKSNDFSIRKT [ECM29] equal to or greater than 3?
RESULT: Criterion not met

QUERY: API: above_or_equal(metric=protein stability index, cutoff=3) for item GNNVQENELVITSIPKP [RMP1]
RESULT: Criterion met

QUERY: Would you say WIRLRTNNTIRYNAKRR [RPL39] shows protein stability index at minimum 3?
RESULT: Criterion not met

QUERY: Please indicate if the recorded protein stability index for VNITKFSKFERSKSSHK [SKI6] meets or exceeds 3.
RESULT: Criterion not met

QUERY: Is protein stability index at least 3? Consider NKQYELFMKSLIENCKK [SWI1]
RESULT: Criterion not met
